molecular target: T1, human CD8 alpha (CD8A) on primary human CD8+ T cells (human, UniProt P01732 22-235); experiment: flow cytometry, human CD8+ T cells, 0.2 uM FN3
T1 construct: whole, on cells; also called hCD8A
T1 sequence (P01732 22-235): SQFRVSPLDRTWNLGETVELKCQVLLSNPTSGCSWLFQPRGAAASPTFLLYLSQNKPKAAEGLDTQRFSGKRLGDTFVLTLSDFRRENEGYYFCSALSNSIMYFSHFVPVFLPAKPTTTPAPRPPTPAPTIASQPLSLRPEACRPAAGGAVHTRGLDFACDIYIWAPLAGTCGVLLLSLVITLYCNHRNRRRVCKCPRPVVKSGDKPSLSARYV
MEASUREMENT NAME: Human T-cell Binding 0.2 uM (MFI)
State the answer as a number, implicitly in MFI.

Some entries whose results are on file:
Task item: Entry P283BR9P1363_B2 (designed binder, FN3 domain) LPAPKNLVVSRVTEDSARLSWASTVDPHPRFDSFLIQYQESEKVGEAIVLTVPGSERSYDLTGLKPGTEYTVSIYGVDVKYDIDSRPISSNPLSAIFTT : reported Human T-cell Binding 0.2 uM (MFI) = ?
Reply: 2400

Task item: Another binder: P282CR9P1358_C2 (designed binder, FN3 domain) LPAPKNLVVSRVTEDSARLSWTAPDAAFDSFKIAYPEWPSNGEAIVLTVPGSERSYDLTGLKPGTEYAVFIWGVKGGAFSNPLSAIFTT
Reply: 1060

Task item: Another binder: P282CR9P1358_D10 (designed binder, FN3 domain) LPAPKNLVVSRVTEDSARLSWTAPDAAFDSFLISYPEYPPPGEAIVLTVPGSERSYDLTGLKPGTEYFVIIFGVKGGDTSWPLSAIFTT
Reply: 2760

Task item: Another binder: P282FR9P1361_F1 (designed binder, FN3 domain) LPAPKNLVVSRVTEDSARLSWTAPDAAFDSFGIWYAEYGYSGEAIVLTVPGSERSYDLTGLKPGTEYDVAIWGVKGGVRSYPLSAIFTT
Reply: 801

---
Task item: Entry P282DR9P1359_F2 (designed binder, FN3 domain) LPAPKNLVVSRVTEDSARLSWTAPDAAFDSFNIAYPEALHPGYGEAIVLTVPGSERSYDLTGLKPGTEYWVIIGGVKGGQKSWPLSAIFTTGGHHHDHH : reported Human T-cell Binding 0.2 uM (MFI) = ?
Reply: 3050

Task item: Another binder: P282ER9P1360_H3 (designed binder, FN3 domain) LPAPKNLVVSRVTEDSARLSWTAPDAAFDSFSIAYVEAELVGEAIQLVVPGSERSYDLTGLKPGTEYWVVILGVKGGNPSNPLGASFTT
Reply: 4270

Task item: Another binder: P283AR9P1362_H11 (designed binder, FN3 domain) LPAPKNLVVSRVTEDSARLSWPKIQGQHFDSFLIQYQESEKVGEAIVLTVPGSERSYDLTGLKPGTEYTVSIYGVDVKYDIDSRPISSNPLSAIFTT
Reply: 2270

Task item: Another binder: P282ER9P1360_G10 (designed binder, FN3 domain) LPAPKNLVVSRVTEDSARLSWTAPDAAFDSFAIWYVEQHPFGEAIPLFVPGSERSYDLTGLKPGTEYTVGIRGVKGGNFSTPLIAHFTT
Reply: 7050

Task item: Another binder: P282CR9P1358_F11 (designed binder, FN3 domain) LPAPKNLVVSRVTEDSARLSWTAPDAAFDSFLIAYPEWPIFEGEAIVLTVPGSERSYDLTGLKPGTEYFVVIYGVKGGEQSSPLSAIFTT
Reply: 749

Task item: Another binder: P282DR9P1359_E5 (designed binder, FN3 domain) LPAPKNLVVSRVTEDSARLSWTAPDAAFDSFAISYPEWPVPGEAIVLTVPGSERSYDLTGLKPGTEYFVIIYGVKGGLYSAPLSAIFTT
Reply: 1950

Task item: Another binder: P283BR9P1363_C4 (designed binder, FN3 domain) LPAPKNLVVSRVTEDSARLSWPIVNTPLHFDSFLIQYQESEKVGEAIVLTVPGSERSYDLTGLKPGTEYTVSIYGVDVQYTATGQPERSNPLSAIFTT
Reply: 2250

Task item: Another binder: P282ER9P1360_H2 (designed binder, FN3 domain) LPAPKNLVVSRVTEDSARLSWTAPDAAFDSFSIAYVEAELVGEAIQLVVPGSERSYDLTGLKPGTEYWVVILGVKGGNPSNPLGASFTTT
Reply: 3480

Task item: Another binder: P283AR9P1362_A4 (designed binder, FN3 domain) LPAPKNLVVSRVTEDSARLSWIGHDSGFDSFLIQYQESEKVGEAIVLTVPGSERSYDLTGLKPGTEYTVSIYGVDVKYDIDSRPISSNPLSAIFTT
Reply: 2540

Task item: Another binder: P282FR9P1361_H4 (designed binder, FN3 domain) LPAPKNLVVSRVTEDSARLSWTAPDAAFDSFGIWYAEYGYSGEAIVLTVPGSERSYDLTGLKPGTEYDVAIYGVKGGSPSYPLSAIFTT
Reply: 3740

Task item: Another binder: P282ER9P1360_C8 (designed binder, FN3 domain) LPAPKNLVVSRVTEDSARLSWTAPDAAFDSFGILYYEPVDSGEAITLPVPGSERSYDLTGLKPGTEYWVVITGVKGGAPSTPLGTIFTT
Reply: 6010

Task item: Another binder: P282FR9P1361_E12 (designed binder, FN3 domain) LPAPKNLVVSRVTEDSARLSWTAPDAAFDSLGITYWESPYAGEAIVLTVPGSERSYDLTGLKPGTEYGVFILGVKGGYPSAPLSAIFTT
Reply: 1130

Task item: Another binder: P282DR9P1359_D12 (designed binder, FN3 domain) LPAPKNLVVSRVTEDSARLSWTAPDAAFDSFRIAYPETATWGEAIVLTVPGSERSYDLTGLKPGTEYFVIIYGVKGGFESAPLSAIFTT
Reply: 542
